target: T1, human CD123 Strep-II tagged Fc-fusion protein (human); assay: SPR Proteon XPR36, rat IgG captured, CD123-Fc analyte
T1 construct: also called human CD123-Fc; recombinant CD123
T1 sequence (chain, as listed by the source limits assumed): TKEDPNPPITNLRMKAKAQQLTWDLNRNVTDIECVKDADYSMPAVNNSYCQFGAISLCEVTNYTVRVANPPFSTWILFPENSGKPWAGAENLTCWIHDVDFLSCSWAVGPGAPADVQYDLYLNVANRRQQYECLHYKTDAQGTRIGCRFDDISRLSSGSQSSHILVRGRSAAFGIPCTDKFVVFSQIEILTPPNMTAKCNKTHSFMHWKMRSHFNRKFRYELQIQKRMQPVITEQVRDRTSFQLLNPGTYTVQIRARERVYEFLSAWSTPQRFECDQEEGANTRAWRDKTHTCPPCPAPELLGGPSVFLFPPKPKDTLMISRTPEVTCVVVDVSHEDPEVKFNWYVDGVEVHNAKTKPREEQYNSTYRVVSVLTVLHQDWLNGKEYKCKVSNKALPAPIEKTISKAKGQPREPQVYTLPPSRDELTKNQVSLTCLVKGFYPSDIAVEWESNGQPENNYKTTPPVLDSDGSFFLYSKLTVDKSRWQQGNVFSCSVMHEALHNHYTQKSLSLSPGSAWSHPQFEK
PROPERTY: Kd (nM)
# unit: nM | format: bare number

Examples with their reported Kd follow.
binder="9D7-C8 anti-CD123 rat IgG (hybridoma supernatant) (antibody, V domains shown, rat IgG; also called BFX - 9D7) VH: EVKLQESGPSLVQSSQTLSLTCTVSGFSLTSYHIHWVRQTPGKGLEWMGVMWSDGDTSYNSALKSRLSISRDTSQSQVFLKMNSLQTEDTATYYCARGYYSSYLYLWFAYWGQGTLVTVSS VL: DIVMTQSPSSLAVSEGETVTINCKSSQSFLSSGDGKNYVAWYQYKPGQSPKLLIYWASTRQSGVPDRFIGSGSGTDFTLTISTVQAEDLAIYYCQQYYDTPLTFGSGTKLEIK" result_number=0.3
binder="2B8-F3 anti-CD123 rat IgG (hybridoma supernatant) (antibody, V domains shown, rat IgG; also called BFX - 2B8) VH: EVQLVESGGGLVQPGRSLKLSCAASGFTFSDYNMAWVRQAPKKGLEWVATILYDGGRTYYRGSVKGRFTISRDNAKSTLYLRMDSLRSEDTATYYCATHSRGTDYFDYWGQGVMVTVSS VL: EIVLTQSPTSMTASPGEQVTITCRASSSINYMHWYQQKPGASPRPWIYETSKLASGVPDRFSGSASGTSYSLTINNMEAEDAATYYCQQWNYPSWTFGGGTKLELK" result_number=0.018

(Q) Suppose we examine the binder 3E3-D3 anti-CD123 rat IgG (hybridoma supernatant) (antibody, V domains shown, rat IgG; also called BFX - 3E3) VH: QVQLQESGPGLVQPSQTLSLTCTVSGFSLTTYDVHWVRQPPGKGLEWMGRIQNGGITDYNSALKSRLIISRDTSKSQVFLKMNSVQTEDTAMYFCAKTGSYFYAFDHWGQGTLVTVSS VL: QFVLTQPNSVSTNLGSTVKLSCKRNTGNIGSNYVNWYQQHEGRSPTTMIYRDDKRPDGVPDRFSGSIDRSSNSALLTINNVQTEDEADYFCQSYSSGINIIFGGGTKLTVL ; what Kd value has been reported?
(A) 0.4

All values here come from patent US20210292423A1.
